Sourced from BindingDB's records for doi:10.1016/j.bioorg.2016.01.003

Below are compounds with their Ki as measured on Adenosine receptor A2b (Homo sapiens).
Sequence (P29275 whole entry): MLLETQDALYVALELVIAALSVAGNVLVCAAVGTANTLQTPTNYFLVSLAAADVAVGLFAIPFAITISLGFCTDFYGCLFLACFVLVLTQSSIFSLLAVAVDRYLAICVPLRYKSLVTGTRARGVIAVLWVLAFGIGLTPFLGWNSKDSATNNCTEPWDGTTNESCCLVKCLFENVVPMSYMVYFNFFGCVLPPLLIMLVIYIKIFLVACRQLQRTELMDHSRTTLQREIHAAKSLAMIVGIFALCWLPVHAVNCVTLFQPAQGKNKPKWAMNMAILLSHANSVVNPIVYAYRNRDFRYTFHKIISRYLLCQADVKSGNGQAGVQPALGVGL

Entry "CN(C)CCNC(=O)COc1ccc(-c2nc3c([nH]2)c(=O)n(C)c(=O)n3C)cc1" — recorded Ki = 0.903 µM

Entry "COc1cc(-c2nc3c([nH]2)c(=O)n(C)c(=O)n3C)ccc1OCC(=O)N1CCN(C)CC1" — recorded Ki = > 10 µM

Entry "CCN(CC)CCNC(=O)COc1ccc(-c2nc3c([nH]2)c(=O)n(C)c(=O)n3C)cc1OC" — recorded Ki = > 10 µM

Entry "COc1cc(-c2nc3c([nH]2)c(=O)n(C)c(=O)n3C)ccc1OCC(=O)N1CCCCC1" — recorded Ki = > 10 µM

Entry "COC(=O)COc1cccc(-c2nc3c([nH]2)c(=O)n(C)c(=O)n3C)c1" — recorded Ki = > 10 µM

* * *

Biological target: UniProt:P30542
Experimental endpoint: Ki

Lab note: compound "COc1cc(-c2nc3c([nH]2)c(=O)n(C)c(=O)n3C)ccc1OCC(=O)N1CCN(C)CC1" tested on UniProt:P30542; recorded Ki was > 30 µM

Lab note: compound "COc1ccc(CCNC(=O)COc2cc(-c3nc4c([nH]3)c(=O)n(C)c(=O)n4C)ccc2OC)cc1OC" tested on UniProt:P30542; recorded Ki was > 30 µM

Lab note: compound "Cn1c(=O)c2[nH]c(-c3cccc(OCC(=O)n4ccnc4)c3)nc2n(C)c1=O" tested on UniProt:P30542; recorded Ki was > 30 µM

Lab note: compound "COc1cc(-c2nc3c([nH]2)c(=O)n(C)c(=O)n3C)ccc1OCC(=O)N1CCCC1" tested on UniProt:P30542; recorded Ki was > 30 µM

Lab note: compound "COc1cc(-c2nc3c([nH]2)c(=O)n(C)c(=O)n3C)ccc1OCC(=O)N1CCCCCC1" tested on UniProt:P30542; recorded Ki was > 10 µM

Lab note: compound "COc1cc(-c2nc3c([nH]2)c(=O)n(C)c(=O)n3C)ccc1OCC(=O)N1CCCCC1" tested on UniProt:P30542; recorded Ki was > 30 µM

* * *

Experimental endpoint: log10 of Ki (log10 of the value in µM)
Hi team, quick reminder: these entries are log10 of Ki (µM).

Lab note: compound "Cn1c(=O)c2[nH]c(-c3cccc(OCC(=O)N4CCOCC4)c3)nc2n(C)c1=O" tested on Adenosine receptor A2a (Homo sapiens, UniProt P29274); recorded log10 of Ki was -0.17

Lab note: compound "COc1ccc(CCNC(=O)COc2ccc(-c3nc4c([nH]3)c(=O)n(C)c(=O)n4C)cc2OC)cc1OC" tested on Adenosine receptor A2a (Homo sapiens, UniProt P29274); recorded log10 of Ki was -0.07

Lab note: compound "Cn1c(=O)c2[nH]c(-c3cccc(OCC(=O)n4ccnc4)c3)nc2n(C)c1=O" tested on Adenosine receptor A2a (Homo sapiens, UniProt P29274); recorded log10 of Ki was -0.29

Lab note: compound "COc1cc(-c2nc3c([nH]2)c(=O)n(C)c(=O)n3C)ccc1OCC(=O)N1CCCCC1" tested on Adenosine receptor A2a (Homo sapiens, UniProt P29274); recorded log10 of Ki was 0.53

Lab note: compound "CCN(CC)CCNC(=O)COc1cccc(-c2nc3c([nH]2)c(=O)n(C)c(=O)n3C)c1" tested on Adenosine receptor A2a (Homo sapiens, UniProt P29274); recorded log10 of Ki was -0.75

Lab note: compound "COc1cc(-c2nc3c([nH]2)c(=O)n(C)c(=O)n3C)ccc1OCC(=O)N1CCN(C)CC1" tested on Adenosine receptor A2a (Homo sapiens, UniProt P29274); recorded log10 of Ki was 0.62

Lab note: compound "COc1ccc(CCNC(=O)COc2cc(-c3nc4c([nH]3)c(=O)n(C)c(=O)n4C)ccc2OC)cc1OC" tested on Adenosine receptor A2a (Homo sapiens, UniProt P29274); recorded log10 of Ki was -0.11

Lab note: compound "COc1cc(-c2nc3c([nH]2)c(=O)n(C)c(=O)n3C)ccc1OCC(=O)N1CCCC1" tested on Adenosine receptor A2a (Homo sapiens, UniProt P29274); recorded log10 of Ki was 0.66

Lab note: compound "Cn1c(=O)c2[nH]c(-c3cccc(OCC(=O)N4CCCCCC4)c3)nc2n(C)c1=O" tested on Adenosine receptor A2a (Homo sapiens, UniProt P29274); recorded log10 of Ki was -0.65

Lab note: compound "Cn1c(=O)c2[nH]c(-c3cccc(OCC(=O)N4CCCCC4)c3)nc2n(C)c1=O" tested on Adenosine receptor A2a (Homo sapiens, UniProt P29274); recorded log10 of Ki was -0.68

Lab note: compound "COC(=O)COc1cc(-c2nc3c([nH]2)c(=O)n(C)c(=O)n3C)ccc1OC" tested on Adenosine receptor A2a (Homo sapiens, UniProt P29274); recorded log10 of Ki was -0.14

Lab note: compound "COc1ccc(-c2nc3c([nH]2)c(=O)n(C)c(=O)n3C)cc1OCC(=O)N1CCCC1" tested on Adenosine receptor A2a (Homo sapiens, UniProt P29274); recorded log10 of Ki was -0.59

Lab note: compound "CCN(CC)CCNC(=O)COc1ccc(-c2nc3c([nH]2)c(=O)n(C)c(=O)n3C)cc1OC" tested on Adenosine receptor A2a (Homo sapiens, UniProt P29274); recorded log10 of Ki was -0.16

Lab note: compound "COc1ccc(-c2nc3c([nH]2)c(=O)n(C)c(=O)n3C)cc1OCC(=O)N1CCCCCC1" tested on Adenosine receptor A2a (Homo sapiens, UniProt P29274); recorded log10 of Ki was -1.03

Lab note: compound "COc1cc(-c2nc3c([nH]2)c(=O)n(C)c(=O)n3C)ccc1OCC(=O)N1CCCCCC1" tested on Adenosine receptor A2a (Homo sapiens, UniProt P29274); recorded log10 of Ki was 0.38

Lab note: compound "COc1ccc(-c2nc3c([nH]2)c(=O)n(C)c(=O)n3C)cc1OCC(=O)N1CCN(C)CC1" tested on Adenosine receptor A2a (Homo sapiens, UniProt P29274); recorded log10 of Ki was -0.16

Lab note: compound "COC(=O)COc1cccc(-c2nc3c([nH]2)c(=O)n(C)c(=O)n3C)c1" tested on Adenosine receptor A2a (Homo sapiens, UniProt P29274); recorded log10 of Ki was -0.43

* * *

Biological target: UniProt:P30542
Sequence (P30542 whole entry): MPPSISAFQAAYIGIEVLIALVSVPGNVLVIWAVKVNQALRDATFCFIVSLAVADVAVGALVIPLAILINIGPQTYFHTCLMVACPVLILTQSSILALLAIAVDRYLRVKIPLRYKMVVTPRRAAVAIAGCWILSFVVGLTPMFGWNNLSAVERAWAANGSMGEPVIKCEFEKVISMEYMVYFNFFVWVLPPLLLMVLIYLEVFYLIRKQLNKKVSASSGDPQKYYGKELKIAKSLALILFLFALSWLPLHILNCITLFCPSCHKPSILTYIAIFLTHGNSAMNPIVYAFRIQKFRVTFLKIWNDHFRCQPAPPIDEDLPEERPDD
pKi: −log10 of the molar value.
Kindly supply the reported pKi values for the records listed here.

Entry "COc1cc(-c2nc3c([nH]2)c(=O)n(C)c(=O)n3C)ccc1OCC(=O)n1ccnc1" — recorded pKi = < 4.52

Entry "COc1ccc(CCNC(=O)COc2ccc(-c3nc4c([nH]3)c(=O)n(C)c(=O)n4C)cc2OC)cc1OC" — recorded pKi = < 4.52

Entry "COC(=O)COc1cccc(-c2nc3c([nH]2)c(=O)n(C)c(=O)n3C)c1" — recorded pKi = 5.40
